Tested on: SNB-19 CNS
assay.protocol: NCI tumour cell line growth inhibition, 48 h
Exercise: state measured TGI for each of the compounds provided.

input: Query TGI for `Cc1cc2c(c(C(=O)NCC(=O)O)c1)Oc1c(cc(C)cc1C(=O)NCC(=O)O)S2`
output: > 100 µM

input: Query TGI for `Clc1ccc(-c2nn3c(COc4cccc(OCc5nnc6sc(-c7ccc(Cl)cc7)nn56)c4)nnc3s2)cc1`
output: > 100 µM

input: Query TGI for `FC(F)c1ncc(-c2ccc(C(F)(F)F)cc2)c(NC2CCCCCC2)n1`
output: > 10 µM

input: Query TGI for CCC1CCCCN1CC(C(C)=O)C(c1ccccc1)c1c(O)c2ccccc2oc1=O (stereo not drawn)
output: > 100 µM

input: Query TGI for `CN1CCN(C(=O)c2ccc(NC(=O)Nc3ccc(-c4nc(N5CCOCC5)c5cccn5n4)cc3)cc2)CC1`
output: 11.1 µM

input: Query TGI for `Cc1c(OCc2cccc3ccccc23)ccc2c(=O)cc(SCCN3CCOCC3)oc12`
output: > 100 µM

input: Query TGI for `CC(C)=Cc1cc(CCC/C(C)=C/Cc2c(O)cc(C)c(C(=O)O)c2O)co1`
output: > 100 µM

input: Query TGI for `COc1cc(C)cc(C(=O)/C=C/c2ccccc2)c1O`
output: 38.5 µM

input: Query TGI for Nc1c(C(=O)c2cccc(C(O)CO)c2)cnn1-c1ccc(F)cc1 (stereo not drawn)
output: > 25 µM

input: Query TGI for `CC(C)C[C@H](NC(=O)Cn1cccc(CNC(=O)c2ccccc2)c1=O)B(O)O`
output: > 100 µM

input: Query TGI for `CC(=O)c1c[nH]c2ccc(-c3ccnc(Nc4ccc(NC(=O)C5CCCC5)c(CN5CCOCC5)c4)n3)cc12`
output: 7.96 µM

input: Query TGI for CCCCC#Cc1c(I)n(C2OC(CO[Si](C)(C)C(C)(C)C)C3OC(C)(C)OC32)c(=O)n(C(=O)c2ccccc2)c1=O (stereo not drawn)
output: 28.4 µM

input: Query TGI for `COc1ccc(Nc2ncnc3ccc(-c4cncc(NS(C)(=O)=O)c4)cc23)cc1Cl`
output: 24.4 µM

input: Query TGI for `N/N=C(/N)SCCCCCCCCCCS/C(N)=N/N`
output: > 100 µM

input: Query TGI for CC12CCC(=O)C(O1)C1C(=O)c3ccc4c(ccc5ccccc54)c3C(=O)C12 (stereo not drawn)
output: 52 µM

input: Query TGI for `Oc1ccc2ccccc2c1OCc1nnc(CCCCCCCCc2nnc(COc3c(O)ccc4ccccc34)n2Nc2ccccc2)n1Nc1ccccc1`
output: > 100 µM

input: Query TGI for `CC(/C=C/C(=O)c1sc(C(N)=S)nc1C)=C\c1ccccc1`
output: 31.2 µM

input: Query TGI for `Cc1ccc(S(=O)(=O)n2cc([C@@]3(O)C[C@H](CSC#N)OC3=O)c3ccccc32)cc1`
output: > 100 µM

input: Query TGI for COC(=O)/C(C#N)=C1\CCC(OC)N1C (stereo not drawn)
output: > 100 µM

input: Query TGI for `O=[N+]([O-])c1cc(/C=N\NS(=O)(=O)c2ccc(Cl)cc2)c(O)c([N+](=O)[O-])c1`
output: 79.5 µM

input: Query TGI for C=CCC12CC(=O)CCC1c1ccc(OC)cc1C2=O (stereo not drawn)
output: > 100 µM

input: Query TGI for `C=C(Br)C[N+]12CN3CN(CN(C3)C1)C2`
output: > 100 µM

input: Query TGI for `Cc1cc(C)c2c(c1)C/C(=C\c1cccc(C)c1C(=O)O)C2=O`
output: > 100 µM

Measured values drawn from PubChem BioAssay (NCI) for this set.
